Read-out: CD40, CD40 (gene 958)
Assay: BSK_SAg_CD40: BioMAP Diversity Plus: SAg Assay for CD40 Biomarker Activity (AID 2283088)
Conditions: primary human HUVEC with PBMC; actives raise or lower the signal
The source made the active and inactive calls. How the source made its calls: active means hit-call score of the fitted dose curve at least 0.9, where 1 is the maximum; inactive means score below 0.9.

| TEST_SMILES | AC50 |
| --- | --- |
| Nc1nc(Cl)nc2c1ncn2[C@H]1C[C@H](O)[C@@H](CO)O1 | 1600 nM (active) |
| CS(=O)(=O)c1ccc([C@@H](C[C@H]2CCC(=O)C2)C(=O)Nc2cnccn2)cc1Cl | inactive |
| O=C1CCCCC1 | inactive |
| O=C(Oc1ccccc1)c1cccc(C(=O)Oc2ccccc2)c1 | inactive |
| CN(C)CCCN(C)CCCN(C)C | inactive |
| CC(N)=O | inactive |
| CC(C)(O)c1ccc(CNC(=O)c2cccnc2Oc2ccc(F)cc2)cc1 | inactive |
| COc1ccc(OC(F)(F)F)cc1CN[C@H]1CCCN[C@H]1c1ccccc1 | inactive |
| Nc1nc(=S)c2[nH]cnc2[nH]1 | inactive |

----------
Assay: ATG_CRE_CIS: Attagene CIS-FACTORIAL HepG2 Assay for human cAMP Responsive Element (CRE) binding protein 3 (AID 2282926)
Conditions: HepG2 CRE cis-reporter, Attagene multiplexed mRNA; actives raise or lower the signal
Active and inactive are the calls of the source. How the source made its calls: active means hit-call score of the fitted dose curve at least 0.9, where 1 is the maximum; inactive means score below 0.9.
Possible outcomes: active, inactive

| MOLECULE | ASSIGNED_CATEGORY |
| --- | --- |
| CS(=O)(=O)c1ccc([C@@H](C[C@H]2CCC(=O)C2)C(=O)Nc2cnccn2)cc1Cl | inactive |
| Cc1ccc(C(C)(C)C)c(O)c1 | active |
| O=C1NC(=O)C(c2ccccc2)(c2ccccc2)N1 | inactive |
| N[C@@H](Cc1c[nH]c2ccccc12)C(=O)O | inactive |
| CC(C)c1cccc(C(C)C)c1NC(=O)NS(=O)(=O)c1cc(C(C)(C)O)co1 | inactive |
| CC(=O)OCC(COC(C)=O)OC(C)=O | inactive |
| NC1CCCCC1 | inactive |
| CC(C)NCC(O)c1ccc(O)c(O)c1 (configuration not stated) | inactive |
| COc1ccc(OC(F)(F)F)cc1CN[C@H]1CCCN[C@H]1c1ccccc1 | inactive |
| CC(C)COC(=O)CCCCC(=O)OCC(C)C | inactive |
| c1ccc2occc2c1 | inactive |
| O=C(N[C@@H](c1ccccc1)[C@@H]1CCCCN1)c1cccc(C(F)(F)F)c1Cl | active |

----------
Read-out: Tumor necrosis factor receptor 1 (TNFRSF1A), TNFRSF1A (gene 7132)
Assay: LTEA_HepaRG_TNFRSF1A: Life Technologies and Expression Analysis (LTEA) Assay for Tumor necrosis factor receptor 1 (TNFRSF1A) using HepaRG (AID 2283535)
Settings: mRNA level, 48 h; actives raise or lower the signal
The source made the active and inactive calls. How the source made its calls: active means hit-call score of the fitted dose curve at least 0.9, where 1 is the maximum; inactive means score below 0.9.
Possible outcomes: active, inactive

| TEST_SMILES | ASSIGNED_CATEGORY |
| --- | --- |
| CC(=O)S[C@H](C(=O)N[C@H]1Cc2ccccc2[C@H]2CCC[C@@H](C(=O)O)N2C1=O)C(C)C | inactive |
| NC=O | inactive |
| CN(C)C(=O)NC1(c2ccccc2)CCN(CC[C@@]2(c3ccc(F)c(F)c3)CN(C(=O)c3ccccc3)CCO2)CC1 | inactive |
| CC(C)c1cccc(C(C)C)c1 | inactive |
| Nc1nc(=S)c2[nH]cnc2[nH]1 | inactive |
| CCCCCCCCCCCCCCOS(=O)(=O)O | inactive |
| O=C(O)CC(O)(CC(=O)O)C(=O)O | inactive |
| CCCCCCCC(=O)OC | inactive |
| NC1CCCCC1 | inactive |
| Cc1ccc(-c2cc(C(F)(F)F)nn2-c2ccc(S(N)(=O)=O)cc2)cc1 | active |
| O=C1O[C@H]([C@H](O)CO)C(O)=C1O | inactive |

All values here come from PubChem BioAssay (EPA / NIEHS).
